Target: UniProtKB Q8NET8
Sequence (Q8NET8 1-790): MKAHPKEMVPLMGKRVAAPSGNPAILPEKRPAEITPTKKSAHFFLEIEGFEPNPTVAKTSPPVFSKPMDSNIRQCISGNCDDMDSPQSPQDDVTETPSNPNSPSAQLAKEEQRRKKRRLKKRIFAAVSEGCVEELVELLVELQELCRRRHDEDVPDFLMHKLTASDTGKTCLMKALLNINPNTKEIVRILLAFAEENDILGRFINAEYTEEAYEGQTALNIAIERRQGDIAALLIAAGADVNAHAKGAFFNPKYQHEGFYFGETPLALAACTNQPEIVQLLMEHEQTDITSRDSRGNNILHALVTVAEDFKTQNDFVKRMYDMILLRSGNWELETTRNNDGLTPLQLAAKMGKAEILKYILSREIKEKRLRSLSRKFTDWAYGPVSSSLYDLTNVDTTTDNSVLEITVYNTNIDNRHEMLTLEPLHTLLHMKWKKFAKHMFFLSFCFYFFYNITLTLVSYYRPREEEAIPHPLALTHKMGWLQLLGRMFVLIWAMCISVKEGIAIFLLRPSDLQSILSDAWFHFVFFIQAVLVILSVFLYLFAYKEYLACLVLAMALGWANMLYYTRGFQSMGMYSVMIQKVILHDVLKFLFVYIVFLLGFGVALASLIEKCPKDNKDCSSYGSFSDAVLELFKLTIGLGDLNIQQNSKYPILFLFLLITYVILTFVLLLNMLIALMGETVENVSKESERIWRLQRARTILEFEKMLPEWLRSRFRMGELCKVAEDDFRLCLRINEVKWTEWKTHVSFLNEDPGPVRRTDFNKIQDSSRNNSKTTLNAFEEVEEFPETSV
Experiment: Calcium flux assay (FLIPR TETRA), recombinant HEK293 cells expressing TRPV3, 2-APB response
Settings: 2-APB at its EC80
observedProperty: IC50

COc1ncnc(OC)c1C(=O)Nc1nc(C(F)(F)F)c(-c2c[nH]c3cc(C#N)ccc23)s1 100 to 500 nM
COc1ncnc(OC)c1C(=O)Nc1nc(C(F)(F)F)c(CNC(C)(C)C)s1 > 1000 nM
COc1ncnc(OC)c1C(=O)Nc1nc(C(F)(F)F)c(C(=O)c2ccccc2)s1 50 to 100 nM

Here's the next entry for you.
Exercise: Output IC50 of `COc1ncnc(OC)c1C(=O)Nc1nc(C(F)(F)F)c(C#CC2CC2)s1`
Solution: < 50 nM

* * *

molecular target: human TRPV3 (Homo sapiens); test: Calcium flux assay (FLIPR TETRA), recombinant HEK293 cells expressing TRPV3, 2-APB response; settings: 2-APB at its EC80
pIC50: −log10 of the molar value.
observedProperty: pIC50

compound	pIC50
COc1ncnc(OC)c1C(=O)Nc1nc(C(F)(F)F)c(S(=O)(=O)c2ccc(C)cc2)s1 [Example 110]	6.30 to 7.00
COc1ncnc(OC)c1C(=O)Nc1nc(C2CCC2)c(F)s1 [Example 101]	7.00 to 7.30
COc1ncnc(OC)c1C(=O)Nc1nc(C(F)(F)F)c(CCC(C)(C)O)s1 [Example 20]	6.00 to 6.30
COc1ncnc(OC)c1C(=O)Nc1nc(CCOc2ccc(F)cc2)cs1 [Example 178]	6.00 to 6.30
COc1ncnc(OC)c1C(=O)Nc1nc(C(F)(F)F)c(C2(O)CCOCC2)s1 [Example 117]	< 6.00
COc1ncnc(OC)c1C(=O)Nc1nc(-c2ccc(OC(F)(F)F)cn2)cs1 [Example 92]	> 7.30
COc1ncnc(OC)c1C(=O)Nc1nc(C(F)(F)F)c(-c2cnn(C3CC3)c2)s1 [Example 168]	7.00 to 7.30
COC/C=C\c1sc(NC(=O)c2c(OC)ncnc2OC)nc1C(F)(F)F [Example 17]	> 7.30

Exercise: Output pIC50 of COc1ncnc(OC)c1C(=O)Nc1nc(C(F)(F)F)c(-c2cnoc2)s1 [Example 169]
Solution: > 7.30

Exercise: Output pIC50 of COc1ncnc(OC)c1C(=O)Nc1nc(C(F)(F)F)c(-c2ccccn2)s1 [Example 45]
Solution: 6.30 to 7.00

Exercise: Output pIC50 of COc1ncnc(OC)c1C(=O)Nc1nc(C(F)(F)F)c(-c2cnn(C(C)C)c2)s1 [Example 174]
Solution: > 7.30

Exercise: Output pIC50 of COc1ncnc(OC)c1C(=O)Nc1nc(C(F)(F)F)c(C2CCCOC2)s1 (stereo not shown) [Example 148]
Solution: 7.00 to 7.30

Exercise: Output pIC50 of COc1ncnc(OC)c1C(=O)Nc1nc(C(F)(F)F)c(-c2cccnc2N2CCOCC2)s1 [Example 185]
Solution: > 7.30
